B1: glmS ribozyme (parent)
chain: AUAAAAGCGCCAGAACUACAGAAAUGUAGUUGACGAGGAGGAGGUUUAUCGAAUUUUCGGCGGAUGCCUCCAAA

variants of: B1; assay: self-cleavage kobs at 160 uM GlcN6P; higher = faster cleavage; RNA array; details: with glucosamine-6-phosphate
This sample holds only a part of the variants without activity.
Recorded self-cleavage kobs at 160 uM GlcN6P by entry

Sample answers from the record:
>>> print(df.to_string())
               variant_code                             endpoint  readout_value
0            A14C A48U G60U  self-cleavage kobs at 160 uM GlcN6P    < 1e-05 s⁻¹
1  A14G A36C G44C G51A G62A  self-cleavage kobs at 160 uM GlcN6P    < 1e-05 s⁻¹
2                 G32A C71G  self-cleavage kobs at 160 uM GlcN6P   5.06e-05 s⁻¹
3                  G7U G62A  self-cleavage kobs at 160 uM GlcN6P    < 1e-05 s⁻¹
4                  C8A U57A  self-cleavage kobs at 160 uM GlcN6P    < 1e-05 s⁻¹

Challenge: Return reported self-cleavage kobs at 160 uM GlcN6P; argument: C11G A12C A52C G59U G66A C67G
Response given: < 1e-05 s⁻¹

Challenge: Return reported self-cleavage kobs at 160 uM GlcN6P; argument: U31G U45G U49A U56A
Response given: < 1e-05 s⁻¹

Challenge: Return reported self-cleavage kobs at 160 uM GlcN6P; argument: A12C G59A G63C
Response given: < 1e-05 s⁻¹
